B1: VH:VL chains; a variant is named by its letters at X, in order (parent)
chain 1: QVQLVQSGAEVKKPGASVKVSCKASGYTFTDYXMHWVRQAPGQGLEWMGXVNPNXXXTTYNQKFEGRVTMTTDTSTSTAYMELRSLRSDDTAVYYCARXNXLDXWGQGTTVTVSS
chain 2: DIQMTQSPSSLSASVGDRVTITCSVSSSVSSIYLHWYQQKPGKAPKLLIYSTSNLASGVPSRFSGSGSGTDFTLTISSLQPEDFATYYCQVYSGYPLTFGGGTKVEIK

variants of: B1; assay: yeast display scFab, FACS + sequencing; conditions: with MET
Some of the results follow. No count for the full screen is at hand.
RECORDED_METRIC: antigen binding call

Study these solved cases before continuing.
VRTKDFSY : no binding
STKAASWV : no binding
SETTDDVA : no binding
YTRGGSGA : no binding
FRGRGSSA : binds

// next entry
Would you mind telling me what antigen binding call value was observed for YTKEASGY ?
no binding
